- Tested on: MALME-3M melanoma
- assay_procedure: NCI tumour cell line growth inhibition, 48 h; in the data active means GI50 below about 0.43 µM; inactive means the rest
Permitted responses: True for active, False for inactive

Consider the following illustrative entries.
COC(=O)[C@@H](C)C[C@H](Cc1ccccc1)NC(=O)c1nc([C@@H](C[C@H](C(C)C)N(C)C(=O)[C@@H](NC(=O)[C@H]2CCCCN2C)C(C)C)OC(C)=O)sc1C(C)C ... True
CCOC(=O)C#Cc1c(C(=O)OCC)nnn1Cc1ccc(C(F)(F)F)cc1 ... False
O=C(c1cccs1)c1c(C(F)(F)F)n([O-])c2ccc(Cl)cc2[n+]1=O ... False
CN(C)c1ccc(N=Nc2ccc(Br)cn2)c(O)c1 ... False
C/C(=N\NC(=O)c1ccccc1N)c1ccccc1O ... False

Consider the additional compound presented here.
Exercise: What classification did Cc1cc(-c2ccc(C3C(C#N)=C(N)Oc4c3c(=O)oc3ccccc43)cc2)cnc1F (stereo unspecified) end up with in this test?
Solution: False

###

- Tested on: SK-MEL-5 melanoma
- assay_procedure: NCI tumour cell line growth inhibition, 48 h; in the data active means GI50 below about 0.43 µM; inactive means the rest
Select the matching outcome among Yes for active, No for inactive

Consider the following illustrative entries.
CC(C)S(=O)(=O)ON1C(=O)c2ccc(N(C)C)cc2C1=O ... No
CN1C(=O)C23CC4(C56CC78SSC(CO)(C(=O)N7C5Nc5ccccc56)N(C)C8=O)c5ccccc5NC4N2C(=O)C1(CO)SS3 (stereo unspecified) ... Yes
CS(=O)(=O)OCCn1c2c(c3c(O)cccc31)C(=O)c1ccccc1-2 ... No
C1CCC(C(CC2CCCCN2)C2CCCCC2)CC1 (stereo unspecified) ... No
Clc1ccc(-c2nc(-c3ccccc3)cn3ccnc23)cc1 ... No

Exercise: What outcome does the record of this test show for `CC(C)CC(=O)[O-].N.N.N.N.N.[Co+3].[O-][Cl+3]([O-])([O-])[O-]` ?
Solution: No

Exercise: Now this one: `COc1cc(/C=C\c2cc(/C=C\c3ccc(O)c(OC)c3)n(C(=O)COc3ccccc3)n2)ccc1O`
Solution: No

Exercise: Record: `CN(C)c1ccc(N=Nc2ccc(Br)cn2)c(O)c1`
Solution: No

Exercise: Same read-out for CCCCCCCCCOc1c(OC)cc(C2CC(=O)Nc3c2c(C)nn3-c2nc3ccccc3[nH]2)cc1OC (stereo unspecified) ?
Solution: No

Exercise: Also check `Oc1ccc(Cl)cc1-c1cc(-c2ccc(Cl)cc2)n[nH]1`
Solution: No

Exercise: Subsequent entry: Cc1cc(-c2ccc(C3C(C#N)=C(N)Oc4c3c(=O)oc3ccccc43)cc2)cnc1F (stereo unspecified)
Solution: No

Exercise: Proceed to `N=C(N)c1ccc(-c2ccc(-c3ccc(F)cc3)s2)nc1`
Solution: No

Exercise: Another: CC(C)=C[C@@H]1C[C@H](C)[C@H]2CC[C@H](C)c3c(O)c(OC4OCC(O)C(O)C4O)c(C)c1c32 (stereo partly specified)
Solution: No

Exercise: Moving on to `COc1ccc2c(c1)C(=O)c1c-2c(=O)n(CCCCCCC(=O)NO)c2ccccc12`
Solution: Yes

Exercise: Queued: `COC(=O)CCC1=C(C)C(C)=N/C1=C\c1[nH]c(-c2ccc[nH]2)cc1OC`
Solution: Yes

Exercise: Same read-out for CC(=O)O[C@H]1[C@@H]2OC(=O)C3(CC3)C2C[C@H]2O[C@]2(C)CC/C=C(\C)CCC[C@@H]1C (stereo partly specified) ?
Solution: No

The reported numbers originate from PubChem BioAssay (NCI).
